Every entry's value here was drawn from paper PMC8185074.

target: HDAC2 (Homo sapiens); construct: purchased Reaction Biology Corporation (assay run by the CRO); assay: HDAC2 inhibition, full IC50 measurement (Reaction Biology; fluorogenic p53 peptide RHKK(Ac)AMC); type: biochemical; conditions: Conc. 1.52E-09 M, t1
Sequence (Q92769 whole entry): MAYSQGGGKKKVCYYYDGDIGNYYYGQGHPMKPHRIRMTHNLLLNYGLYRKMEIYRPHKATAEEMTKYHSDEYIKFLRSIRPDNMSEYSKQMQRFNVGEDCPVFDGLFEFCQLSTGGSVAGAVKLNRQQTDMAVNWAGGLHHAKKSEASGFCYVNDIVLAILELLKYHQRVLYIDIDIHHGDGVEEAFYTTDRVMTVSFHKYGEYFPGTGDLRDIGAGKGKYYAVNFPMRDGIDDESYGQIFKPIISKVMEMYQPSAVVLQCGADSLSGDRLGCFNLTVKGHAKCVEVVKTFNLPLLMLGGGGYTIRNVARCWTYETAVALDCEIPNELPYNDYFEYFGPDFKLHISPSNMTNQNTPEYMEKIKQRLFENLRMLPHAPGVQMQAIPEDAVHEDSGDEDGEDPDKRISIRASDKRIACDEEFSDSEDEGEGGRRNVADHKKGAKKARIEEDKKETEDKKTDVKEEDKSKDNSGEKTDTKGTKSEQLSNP
Peptide text beside a SMILES is read from it.

[
  {
    "compound": "NCCCC[C@@H]1NC(=O)[C@@H]2CCCN2C(=O)[C@H](CC(N)=O)NC(=O)[C@H](CCCCCS)NC(=O)CNC(=O)[C@H](Cc2c[nH]c3ccccc23)NC(=O)[C@@H](CCCCN)NC(=O)[C@H](CCC(N)=O)NC1=O [des1.1.0, SHA-Asn-Pro-Lys-Gln-dLys-Trp-Gly] (HELM PEPTIDE1{G.[O=C([C@H](CCCCCS)N[*:1])[*:2]].N.P.K.Q.[dK].W}$PEPTIDE1,PEPTIDE1,1:R1-8:R2$$$V2.0)",
    "HDAC2 activity raw data (signal)": 1105616
  },
  {
    "compound": "CC(C)[C@@H]1NC(=O)[C@H](CCCNC(=N)N)NC(=O)[C@@H](CC(=O)O)NC(=O)[C@H](CO)NC(=O)[C@@H](CO)NC(=O)[C@@H](CCC(=O)O)NC(=O)[C@H](Cc2ccc(O)cc2)NC(=O)[C@H](CCCCCS)NC1=O [des4.2.0, SHA-Tyr-dGlu-dSer-Ser-dAsp-Arg-Val] (HELM PEPTIDE1{R.V.[O=C([C@H](CCCCCS)N[*:1])[*:2]].Y.[dE].[dS].S.[dD]}$PEPTIDE1,PEPTIDE1,1:R1-8:R2$$$V2.0)",
    "HDAC2 activity raw data (signal)": 1730890
  }
]
